# measuredTarget: C5 (Homo sapiens, UniProt P01031)
# Sequence (P01031 19-1676): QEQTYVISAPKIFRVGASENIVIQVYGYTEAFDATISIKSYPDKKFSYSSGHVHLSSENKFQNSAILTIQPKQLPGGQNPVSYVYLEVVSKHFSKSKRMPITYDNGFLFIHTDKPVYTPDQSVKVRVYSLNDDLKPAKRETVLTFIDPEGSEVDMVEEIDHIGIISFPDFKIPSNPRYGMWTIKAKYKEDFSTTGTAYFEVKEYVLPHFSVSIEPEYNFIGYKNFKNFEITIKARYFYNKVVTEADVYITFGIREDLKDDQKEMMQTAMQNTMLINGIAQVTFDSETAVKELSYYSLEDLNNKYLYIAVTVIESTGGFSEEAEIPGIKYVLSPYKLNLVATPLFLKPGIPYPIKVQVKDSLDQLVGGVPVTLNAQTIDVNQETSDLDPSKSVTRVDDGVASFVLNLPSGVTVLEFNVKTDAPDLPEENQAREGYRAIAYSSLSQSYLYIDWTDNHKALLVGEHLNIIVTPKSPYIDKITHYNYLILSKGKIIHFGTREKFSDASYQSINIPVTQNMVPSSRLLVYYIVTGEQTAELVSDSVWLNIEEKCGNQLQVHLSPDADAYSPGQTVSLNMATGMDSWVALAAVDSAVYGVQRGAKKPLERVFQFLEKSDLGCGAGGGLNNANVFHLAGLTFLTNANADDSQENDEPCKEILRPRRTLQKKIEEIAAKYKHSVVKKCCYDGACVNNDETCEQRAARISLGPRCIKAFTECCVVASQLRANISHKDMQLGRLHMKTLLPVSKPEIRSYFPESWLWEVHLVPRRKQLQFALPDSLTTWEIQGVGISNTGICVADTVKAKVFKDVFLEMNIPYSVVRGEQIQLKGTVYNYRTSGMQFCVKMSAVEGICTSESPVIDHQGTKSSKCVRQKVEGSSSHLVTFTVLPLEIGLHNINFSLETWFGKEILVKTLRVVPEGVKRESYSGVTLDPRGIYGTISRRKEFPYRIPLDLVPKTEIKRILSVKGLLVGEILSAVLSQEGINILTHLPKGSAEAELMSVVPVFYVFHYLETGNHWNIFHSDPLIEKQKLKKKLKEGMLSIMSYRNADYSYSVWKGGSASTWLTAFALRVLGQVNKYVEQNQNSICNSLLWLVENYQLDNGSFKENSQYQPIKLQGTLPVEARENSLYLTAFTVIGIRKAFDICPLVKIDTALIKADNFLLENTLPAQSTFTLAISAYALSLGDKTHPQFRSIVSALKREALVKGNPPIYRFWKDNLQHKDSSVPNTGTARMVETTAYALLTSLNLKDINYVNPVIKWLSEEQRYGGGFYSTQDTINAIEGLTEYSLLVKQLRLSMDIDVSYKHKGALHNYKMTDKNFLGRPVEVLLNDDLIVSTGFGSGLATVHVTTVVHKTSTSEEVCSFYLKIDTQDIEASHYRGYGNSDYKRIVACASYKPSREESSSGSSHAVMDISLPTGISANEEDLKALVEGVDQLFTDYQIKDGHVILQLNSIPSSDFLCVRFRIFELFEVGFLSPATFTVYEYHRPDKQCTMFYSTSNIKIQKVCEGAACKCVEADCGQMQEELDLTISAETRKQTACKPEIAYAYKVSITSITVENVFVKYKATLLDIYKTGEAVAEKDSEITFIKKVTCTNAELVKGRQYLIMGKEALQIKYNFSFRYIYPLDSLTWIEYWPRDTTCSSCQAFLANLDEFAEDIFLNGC
# experiment: Human hemolysis assay (RBC lysis assay using complete human sera)
# Type: cell-based
# Design: with complete human sera (Complement Technology, Tyler Tex.) and polypeptides; tissue Complement Technology, Tyler Tex; host or cells: complete human serum
# runParameters: C-terminally truncated polypeptide variants of R3021; inhibition of red blood cell lysis
pIC50: −log10 of the molar value. Starred links: 1 amine or outer side, 2 acyl side, 3 side chain; linkers in the order of their positions; H or OH if unused. Positions of bridges follow the written chain, without caps; N, C: chain ends. Residues, ends and D or L forms follow the SMILES beside them. mXylylene = c1cc(C[*:1])cc(C[*:2])c1
Task for the reader: assign each of the following molecules its reported pIC50.

CSCC[C@H](N)C(=O)N[C@H]1CSCc2cccc(c2)CSC[C@@H](C(=O)N[C@@H](CC(=O)O)C(=O)N[C@H](C(N)=O)C(C)C)NC(=O)[C@H](Cc2ccccc2)NC(=O)[C@H](CCCNC(=N)N)NC(=O)[C@H](CCC(=O)O)NC(=O)[C@H](C(C)C)NC1=O [Compound R3046, [mXylyl(2,7)]M-C-V-E-R-F-C-D-V-NH2] (H-MCVERFCDV-NH2; linker 2-7 via mXylylene) ... < 4.00
CSCC[C@H](N)C(=O)N[C@H]1CSCc2cccc(c2)CSC[C@@H](C(=O)N[C@@H](CC(=O)O)C(=O)N[C@H](C(=O)N[C@@H](Cc2ccc(O)cc2)C(=O)N[C@@H](Cc2c[nH]c3ccccc23)C(N)=O)C(C)C)NC(=O)[C@H](Cc2ccccc2)NC(=O)[C@H](CCCNC(=N)N)NC(=O)[C@H](CCC(=O)O)NC(=O)[C@H](C(C)C)NC1=O [Compound R3044, [mXylyl(2,7)]M-C-V-E-R-F-C-D-V-Y-W-NH2] (H-MCVERFCDVYW-NH2; linker 2-7 via mXylylene) ... < 4.30

Hi team, please reply with pIC50 for each item in this list.
1. CSCC[C@H](N)C(=O)N[C@H]1CSCc2cccc(c2)CSC[C@@H](C(=O)N[C@@H](CC(=O)O)C(=O)N[C@H](C(=O)N[C@@H](Cc2ccc(O)cc2)C(N)=O)C(C)C)NC(=O)[C@H](Cc2ccccc2)NC(=O)[C@H](CCCNC(=N)N)NC(=O)[C@H](CCC(=O)O)NC(=O)[C@H](C(C)C)NC1=O [Compound R3045, [mXylyl(2,7)]M-C-V-E-R-F-C-D-V-Y-NH2] (H-MCVERFCDVY-NH2; linker 2-7 via mXylylene)
2. CSCC[C@H](N)C(=O)N[C@H]1CSCc2cccc(c2)CSC[C@@H](C(N)=O)NC(=O)[C@H](Cc2ccccc2)NC(=O)[C@H](CCCNC(=N)N)NC(=O)[C@H](CCC(=O)O)NC(=O)[C@H](C(C)C)NC1=O [Compound R3047, [mXylyl(2,7)]M-C-V-E-R-F-C-NH2] (H-MCVERFC-NH2; linker 2-7 via mXylylene)

< 4.00
< 4.00

* * *

# measuredTarget: C5 (Homo sapiens, UniProt P01031)
# experiment: Human hemolysis assay (RBC lysis assay using complete human sera)
# Assay type: cell-based
# Design: with complete human sera (Complement Technology, Tyler Tex.) and polypeptides; tissue Complement Technology, Tyler Tex; host or cells: complete human serum
# runParameters: inhibition of lysis of antibody-sensitized sheep erythrocytes, complete human sera
Starred links: 1 amine or outer side, 2 acyl side, 3 side chain; linkers in the order of their positions; H or OH if unused. Positions of bridges follow the written chain, without caps; N, C: chain ends. Residues, ends and D or L forms follow the SMILES beside them. mXylylene = c1cc(C[*:1])cc(C[*:2])c1
Task for the reader: assign each of the following compounds its reported IC50.
Numbers only, in µM.

CC(=O)N[C@H]1CSCc2cccc(c2)CSC[C@@H](C(=O)N[C@@H](CC(=O)O)C(=O)N[C@H](C(=O)N[C@@H](Cc2ccc(O)cc2)C(=O)N[C@@H](Cc2c[nH]c3ccccc23)C(=O)N[C@@H](CCC(=O)O)C(=O)N[C@@H](Cc2ccccc2)C(=O)N2CCC[C@H]2C(N)=O)C(C)C)NC(=O)[C@H](Cc2ccccc2)NC(=O)[C@H](CCCNC(=N)N)NC(=O)[C@H](CCC(=O)O)NC(=O)[C@H](C(C)C)NC1=O [Compound R3141] (Ac-CVERFCDVYWEFP-NH2; linker 1-6 via mXylylene) ... 0.0245

Record summary for `CC(=O)N[C@H]1CSCc2cccc(c2)CSC[C@@H](C(=O)N[C@@H](CC(=O)O)C(=O)N[C@H](C(=O)N[C@@H](Cc2ccc(O)cc2)C(=O)N[C@@H](Cc2c[nH]c3ccccc23)C(=O)N[C@@H](CCC(=O)O)C(=O)N[C@@H](Cc2ccc(O)cc2)C(=O)N2CCC[C@H]2C(N)=O)C(C)C)NC(=O)[C@H](Cc2ccccc2)NC(=O)[C@H](CCCNC(=N)N)NC(=O)[C@H](CCC(=O)O)NC(=O)[C@H](C(C)C)NC1=O` : reported IC50 = 0.0179

* * *

# measuredTarget: C5 (Homo sapiens, UniProt P01031)
# experiment: Human hemolysis assay (RBC lysis assay using complete human sera)
# Format: cell-based
# Set-up: with complete human sera (Complement Technology, Tyler Tex.) and polypeptides; tissue Complement Technology, Tyler Tex; host or cells: complete human serum
# runParameters: inhibition of lysis of antibody-sensitized sheep erythrocytes, complete human sera
Starred links: 1 amine or outer side, 2 acyl side, 3 side chain; linkers in the order of their positions; H or OH if unused. Positions of bridges follow the written chain, without caps; N, C: chain ends. Non-standard residues stand in square brackets, D forms with d. Residues, ends and D or L forms follow the SMILES beside them. Trp(7-aza) = N[C@@H](Cc1c[nH]c2ncccc12)C(=O)O; mXylylene = c1cc(C[*:1])cc(C[*:2])c1; Chg = N[C@H](C(=O)O)C1CCCCC1; Phg = N[C@H](C(=O)O)c1ccccc1; Tle = CC(C)(C)[C@H](N)C(=O)O; NMeS = CN[C@@H](CO)C(=O)O; Nva = CCC[C@H](N)C(=O)O; Sar = CNCC(=O)O
readoutName: pIC50
Numbers only, as −log10 of the molar value.

CCC[C@H](NC(C)=O)C(=O)N[C@@H](CCC)C(=O)N[C@@H](Cc1ccc(O)cc1)C(=O)N[C@@H](CCC(=O)O)C(=O)N[C@@H](CC(N)=O)C(=O)N[C@H](C(=O)N[C@@H](Cc1ccc(O)cc1)C(=O)N[C@@H](Cc1c[nH]c2ncccc12)C(=O)N[C@@H](CCC(=O)O)C(=O)N[C@@H](Cc1ccc(O)cc1)C(=O)N1CCC[C@H]1C(=O)N[C@H](C(=O)N[C@@H](CCC)C(=O)N[C@@H](CCCCN)C(N)=O)C1CCCCC1)C(C)(C)C [Compound R3072] (Ac-[Nva][Nva]YEN[Tle]Y[Trp(7-aza)]EYP[Chg][Nva]K-NH2) ... 7.57
CCCCCCCC(=O)NCCCC[C@H](NC(=O)[C@@H](NC(=O)[C@@H]1CCCN1C(=O)[C@H](Cc1ccc(O)cc1)NC(=O)[C@H](CCC(=O)O)NC(=O)[C@H](Cc1c[nH]c2ncccc12)NC(=O)[C@H](Cc1ccc(O)cc1)NC(=O)[C@@H](NC(=O)[C@H](CC(=O)O)NC(=O)[C@@H]1CSCc2cccc(c2)CSC[C@H](NC(C)=O)C(=O)N[C@@H](C)C(=O)N[C@@H](CCC(=O)O)C(=O)N[C@@H](CCCNC(=N)N)C(=O)N[C@@H](Cc2ccccc2)C(=O)N1)C(C)(C)C)c1ccccc1)C(N)=O ... 7.76
CCC[C@H](NC(C)=O)C(=O)N[C@@H](CS)C(=O)N[C@@H](Cc1ccc(O)cc1)C(=O)N[C@@H](Cc1c[nH]c2ncccc12)C(=O)N(C)CC(=O)N[C@H](C(=O)N[C@@H](CCC)C(=O)N[C@@H](Cc1c[nH]c2ncccc12)C(=O)N[C@@H](CCC(=O)O)C(=O)N[C@@H](Cc1ccc(O)cc1)C(=O)N1CCC[C@H]1C(=O)N[C@H](C(=O)N1CCC[C@H]1C(N)=O)c1ccccc1)C(C)(C)C [Compound R3005] (Ac-[Nva]CY[Trp(7-aza)][Sar][Tle][Nva][Trp(7-aza)]EYP[Phg]P-NH2) ... 7.18

Next compound, please.
Record summary for CCC[C@H](NC(=O)[C@@H]1CSCc2cccc(c2)CSC[C@H](NC(=O)[C@H](CCC)NC(C)=O)C(=O)N[C@@H](c2ccccc2)C(=O)N[C@@H](C)C(=O)N[C@@H](Cc2c[nH]c3ncccc23)C(=O)N[C@@H](CCC(=O)O)C(=O)N[C@@H](Cc2ccc(O)cc2)C(=O)N(C)[C@@H](CO)C(=O)N[C@@H](Cc2c[nH]cn2)C(=O)N1)C(N)=O [Compound R3033] (Ac-[Nva]C[Phg]A[Trp(7-aza)]EY[NMeS]HC[Nva]-NH2; linker 2-10 via mXylylene) : reported pIC50 = 6.88
